FYI, the data here is from paper PMC4585259.

# Experimental Target: rNav1.2 sodium channels (Rattus norvegicus)
# Construct: host or cells: HEK-293
# Sequence (P04775 whole entry): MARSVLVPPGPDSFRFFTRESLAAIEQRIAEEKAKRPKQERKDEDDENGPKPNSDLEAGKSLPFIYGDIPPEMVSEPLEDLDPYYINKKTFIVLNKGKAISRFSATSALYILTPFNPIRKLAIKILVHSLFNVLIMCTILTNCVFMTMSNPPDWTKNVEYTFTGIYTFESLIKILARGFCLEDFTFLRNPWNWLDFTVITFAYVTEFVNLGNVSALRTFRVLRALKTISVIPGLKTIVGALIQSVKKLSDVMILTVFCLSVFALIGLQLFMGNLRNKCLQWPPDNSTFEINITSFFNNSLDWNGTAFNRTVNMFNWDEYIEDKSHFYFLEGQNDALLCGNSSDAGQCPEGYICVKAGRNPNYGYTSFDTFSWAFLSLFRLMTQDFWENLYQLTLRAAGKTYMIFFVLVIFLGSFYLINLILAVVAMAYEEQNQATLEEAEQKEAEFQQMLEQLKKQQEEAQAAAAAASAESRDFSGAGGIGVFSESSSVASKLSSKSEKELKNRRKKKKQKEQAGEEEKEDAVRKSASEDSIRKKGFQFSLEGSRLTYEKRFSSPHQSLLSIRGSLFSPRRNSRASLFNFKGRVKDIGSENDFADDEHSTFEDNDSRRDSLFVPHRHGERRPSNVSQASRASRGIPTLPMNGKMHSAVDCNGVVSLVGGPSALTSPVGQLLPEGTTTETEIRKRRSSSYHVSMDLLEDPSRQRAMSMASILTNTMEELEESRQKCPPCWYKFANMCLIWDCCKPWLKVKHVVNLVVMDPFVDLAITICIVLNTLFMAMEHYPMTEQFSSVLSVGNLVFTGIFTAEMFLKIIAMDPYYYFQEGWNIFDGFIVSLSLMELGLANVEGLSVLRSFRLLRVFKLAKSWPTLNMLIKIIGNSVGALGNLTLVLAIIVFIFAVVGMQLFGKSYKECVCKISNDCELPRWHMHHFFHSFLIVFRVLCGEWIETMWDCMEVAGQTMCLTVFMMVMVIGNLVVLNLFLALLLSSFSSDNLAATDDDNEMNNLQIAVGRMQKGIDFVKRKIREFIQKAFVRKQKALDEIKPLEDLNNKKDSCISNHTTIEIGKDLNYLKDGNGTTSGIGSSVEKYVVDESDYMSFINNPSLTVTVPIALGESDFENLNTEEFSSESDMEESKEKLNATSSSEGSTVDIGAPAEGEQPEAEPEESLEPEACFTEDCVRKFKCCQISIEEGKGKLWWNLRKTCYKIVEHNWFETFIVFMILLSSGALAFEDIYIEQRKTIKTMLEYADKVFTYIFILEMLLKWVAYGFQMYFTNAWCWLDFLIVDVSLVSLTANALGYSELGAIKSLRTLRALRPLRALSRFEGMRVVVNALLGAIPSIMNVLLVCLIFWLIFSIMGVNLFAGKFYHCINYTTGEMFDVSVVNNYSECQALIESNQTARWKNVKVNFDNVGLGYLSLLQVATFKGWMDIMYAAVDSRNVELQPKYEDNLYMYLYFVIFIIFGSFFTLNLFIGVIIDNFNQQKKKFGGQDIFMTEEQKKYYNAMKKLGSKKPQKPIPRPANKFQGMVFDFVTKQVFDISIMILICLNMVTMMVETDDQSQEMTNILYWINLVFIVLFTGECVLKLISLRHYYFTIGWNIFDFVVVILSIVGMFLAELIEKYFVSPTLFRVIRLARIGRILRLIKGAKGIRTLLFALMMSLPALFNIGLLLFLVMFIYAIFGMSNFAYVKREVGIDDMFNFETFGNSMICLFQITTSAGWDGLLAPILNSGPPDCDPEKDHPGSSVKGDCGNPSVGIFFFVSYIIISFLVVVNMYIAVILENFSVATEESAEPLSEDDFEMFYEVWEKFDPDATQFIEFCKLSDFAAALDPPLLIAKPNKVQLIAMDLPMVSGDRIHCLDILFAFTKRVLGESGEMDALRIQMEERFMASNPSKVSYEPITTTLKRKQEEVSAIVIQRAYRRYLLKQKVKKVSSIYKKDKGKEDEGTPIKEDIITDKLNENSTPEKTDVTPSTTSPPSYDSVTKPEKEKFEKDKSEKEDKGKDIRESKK
# Assay Remarks: QPatch automated patch clamp, inhibition of sodium currents evoked by 5 Hz trains at three extracellular pH values
# Format: cell-based
# Condition Summary: pH=6.0; cc 100 mM
Recorded Endpoint: Reversibility
Please state the value as a number alone, without comment.

The examples below pair each entry with its known result.
CN1CCN2c3ncccc3Cc3ccccc3C2C1 (stereo not shown) [mirtazapine] ... 0.26
C[Si](C)(Cc1ccc(F)cc1)CN1CCCCC1 [silperisone] ... 0.80
CNCCC(Oc1ccccc1OC)c1ccccc1 (stereo not shown) [nisoxetine] ... 0.75

Turning to the following compound.
The compound listed as Nc1c(Br)cc(Br)cc1CN[C@H]1CC[C@H](O)CC1 [ambroxol] shows Reversibility equal to 0.65
